As shown below, each of these compounds has a reported Growth Rate value.
# Test system: Fibroblast
# PROTOCOL TEXT: Incucyte cell viability with human fibroblast; further: unitless GR value; below 1 slowed growth and below 0 cell loss
# Type: toxicity, cell-based
# RUN CONDITIONS: 6 h, 10 µM, compound concentration 10 uM, replicate number 1
Give the figure by itself; no unit, no explanation.

Illustrative cases are given below, each with its answer.
O=C(Nc1ccc(C(O)(C(F)(F)F)C(F)(F)F)cc1)c1ccc(C(F)(F)F)cc1    0.78
O=C(/N=c1\sccn1Cc1ccccc1)c1c[nH]c2ncccc12    -1
Cc1nccn1-c1ccc(Sc2cccc(C3(C(N)=O)CCOCC3)c2)cc1    0.34
C[C@H](CCC(=O)O)[C@H]1CC[C@H]2[C@@H]3CC[C@@H]4C[C@H](O)CC[C@]4(C)[C@H]3C[C@H](O)[C@]12C    0.32
COc1ccc2nc3ccc(OC)cc3c(SCCCN)c2c1.Cl    -1

QUERY: Consider the compound CC[C@H]1[C@@H](O)[C@@H]2[C@H](CC[C@]3(C)[C@@H]([C@H](C)CCC(=O)O)CC[C@@H]23)[C@@]2(C)CC[C@@H](O)C[C@@H]12 and give its measured Growth Rate.
RESULT: 0.39

QUERY: Consider the compound Cn1cc(C(=O)O)c2ccc(N3CCC(OCc4c(-c5c(Cl)cccc5Cl)noc4C4CC4)CC3)cc21 and give its measured Growth Rate.
RESULT: -0.66

QUERY: Consider the compound Cc1nc2c(cc1F)c(-c1nnc3c(n1)NC(=O)C3(C)C)nn2Cc1cccc(F)c1F and give its measured Growth Rate.
RESULT: 0.59
